Target: human mAChR M4 (Homo sapiens)
Construct: expressed in transfected cells
Sequence (P08173 1-479): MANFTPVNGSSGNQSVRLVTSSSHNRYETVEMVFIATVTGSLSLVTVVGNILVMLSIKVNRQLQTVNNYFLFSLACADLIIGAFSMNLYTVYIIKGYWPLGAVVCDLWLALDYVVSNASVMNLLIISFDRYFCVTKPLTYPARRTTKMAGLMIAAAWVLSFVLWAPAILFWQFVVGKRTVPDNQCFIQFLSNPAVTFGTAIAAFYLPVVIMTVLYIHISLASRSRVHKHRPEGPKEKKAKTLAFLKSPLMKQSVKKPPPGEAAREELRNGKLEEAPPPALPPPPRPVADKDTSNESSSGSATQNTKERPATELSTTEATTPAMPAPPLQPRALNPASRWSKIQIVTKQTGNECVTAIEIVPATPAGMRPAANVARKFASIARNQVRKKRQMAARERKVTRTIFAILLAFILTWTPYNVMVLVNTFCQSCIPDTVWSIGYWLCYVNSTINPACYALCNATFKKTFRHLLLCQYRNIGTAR
Assay: mAChR M4 cell-based functional assay (calcium mobilization, CHO-K1 hM4-Gqi5 cells)
Conditions: CHO-K1, % ACh maximum at 30 μM; human M4
reported_property: Emax at 30 µM (%)
Reply numerically in %, unit not repeated.

Ask: Can you look up the measured Emax at 30 µM of Cc1cc(C(=O)NCc2cccnc2)cnc1N1CCc2ncc(-c3cn(C)nc3C)cc2C1 for me?
Result: 85

Ask: Queued: Cc1cc(C#N)cnc1N1CCc2ncc(-c3cnn(C4CCCC4)c3)cc2C1
Result: 79

Ask: Could you do the same for Cc1cc(C(=O)N2CCCC2)nnc1N1CCc2ncc(C(F)(F)F)cc2C1 , please?
Result: 105

Ask: What would you report for Cc1nc(C)c(C)c(N2CCc3ncc(-c4ccc(N5CCC5)nc4)cc3C2)n1 ?
Result: 63

Ask: Same thing, different molecule: Cc1nn(C)cc1-c1cnc2c(c1)CN(c1nc(CO)nc(C)c1C)CC2
Result: 89

Ask: Consider next the molecule Cc1cc(C#N)cnc1N1Cc2cc(C(F)(F)F)cnc2C(C)C1 (stereo not shown) in the same way.
Result: 82

Ask: Okay, and Cc1c(C#N)nnc(N2CCc3ncc(Nc4ncc(F)cc4F)cc3C2)c1C ?
Result: 65

Ask: Thanks! And Cc1nc(Cl)c(C)c(N2CCc3ncc(N4CCCn5nccc54)cc3C2)n1 ?
Result: 102

Ask: Proceed to Cc1cc(C(=O)NCc2cncs2)cnc1N1CCc2ncc(-c3ccc(N(C)C)nc3)cc2C1
Result: 79

Ask: Then this molecule: Cc1cc(C(=O)NCc2cnc3c(c2)CCC3)cnc1N1CCc2ncccc2C1
Result: 63

Ask: Same read-out for Cc1cc(C(=O)N2CCN(C)CC2)nnc1N1CCc2ncc(N3CCCn4nccc43)cc2C1 ?
Result: 103

Ask: Check [2H]C([2H])(NC(=O)c1cc(C)c(N2CCc3ncc(N4CCCn5nccc54)cc3C2)nn1)c1cscn1 too.
Result: 82

Ask: Next up: Cc1cc(C(=O)N2CC(C)(F)C2)nnc1N1CCc2ncc(-c3ccnn3C)cc2C1
Result: 72

Ask: Cool, now Cc1nc(Cl)c(C)c(N2CCc3ncc(-c4cncs4)cc3C2)n1
Result: 91

Ask: How about Cc1nc(C)c(C)c(N2CCc3ncc(Nc4cccnc4F)cc3C2)n1 ?
Result: 61

Ask: Ok, now Cc1cc(C(=O)NCc2ccncc2)cnc1N1CCc2ncccc2C1
Result: 67

Ask: Same for Cc1cc(C#N)cnc1N1CCc2ncc(N3CCOC(c4cccnc4)C3)cc2C1 (stereo not shown)
Result: 92

Ask: And the next one, Cc1cc(C(=O)NCc2cscn2)cnc1N1CCc2ncc(-c3ccc(C4CC4)nc3)cc2C1 ?
Result: 88

Ask: Same question for Cc1cc(C(=O)N2CC(C)(O)C2)nnc1N1CCc2ncc(CC(F)(F)F)cc2C1 please.
Result: 93

Ask: Same for Cc1c(C#N)nnc(N2CCc3ncc(-c4ccc(N(C)C)nc4)cc3C2)c1C
Result: 50

Ask: Cool, now Cc1nc(Cl)c(C)c(N2CCc3ncc(Nc4cc(F)ccc4F)cc3C2)n1
Result: 86

Ask: Now try Cc1cc(C(=O)NCc2cnc(Cl)s2)cnc1N1CCc2ncccc2C1 .
Result: 69

Ask: Similarly, Cc1nc(C)c(-c2cnc3c(c2)CN(c2nnc(C#N)c(C)c2C)CC3)s1 ?
Result: 83

Ask: What do we get for CCCn1cc(-c2cnc3c(c2)CN(c2ncc(C#N)cc2C)CC3)cn1 ?
Result: 90

Ask: Next up: Cc1ncc(-c2cnc3c(c2)CN(c2nnc(C#N)cc2C)CC3)s1
Result: 78

Ask: // query: Cc1nc(Cl)c(C)c(N2CCc3ncc(-c4cnn(CC5CC5)c4)cc3C2)n1
Result: 93

Ask: Another molecule to check: Cc1cc(C#N)cnc1N1CCc2ncc(N3CCO[C@H](c4ccccc4)C3)cc2C1
Result: 85

Ask: # iterate: Cc1cc(C#N)nnc1N1CCc2ncc(-c3cnn(C4CC4)c3)cc2C1
Result: 115

Ask: Next record, please: Cc1cnccc1CNC(=O)c1cnc(N2CCc3ncccc3C2)c(C)c1
Result: 82

Ask: What about Cc1cc(C(=O)N2CC(F)C2)nnc1N1CCc2ncc(-c3ccnn3C)cc2C1 ?
Result: 69

Ask: // query: Cc1nc(C)c(C)c(N2CCc3ncc(-c4ccc(N5CCN(C)CC5)nc4)cc3C2)n1
Result: 80

Ask: Queued: Cc1cc(C(=O)NCc2ccc3c(c2)CCS3(=O)=O)cnc1N1CCc2ncccc2C1
Result: 54

Ask: Now the same for Cc1cc(C#N)cnc1N1CCc2ncc(Oc3cccc(F)c3)cc2C1
Result: 90

Ask: Cc1cc(C(=O)N2CC3(C2)CC(F)(F)C3)nnc1N1CCc2ncc(-n3cccn3)cc2C1 , same question.
Result: 84

====

What Emax at 30 µM was measured for each of the following?
target: human mAChR M4 (Homo sapiens); construct: expressed in transfected cells; assay: mAChR M4 cell-based functional assay (calcium mobilization, CHO-K1 hM4-Gqi5 cells); conditions: CHO-K1, % ACh maximum at 30 μM; human M4
Hi! Could you send only the number? It should be in %, unit omitted.

Ask: Checklist item: Emax at 30 µM tested on human mAChR M4 (Homo sapiens), entry Cc1c(C#N)nnc(N2CCc3ncc(N4CCOC(c5cccnc5)C4)cc3C2)c1C (centres unmarked) [Example 388] , value?
Result: 83

Ask: Cool, now Cc1ccc(Nc2cnc3c(c2)CN(c2nnc(C#N)c(C)c2C)CC3)c(F)n1 [compound 79]
Result: 82

Ask: Moving on to the next compound: Cc1nn(C)cc1-c1cnc2c(c1)CN(c1ncc(C(N)=O)cc1C(F)(F)F)CC2 [Example 487]
Result: 38

Ask: Query Cc1c(C#N)nnc(N2CCc3ncc(Oc4ccc(F)cc4)cc3C2)c1C [Example 300] next
Result: 71

Ask: Entry Cc1cc(C(=O)N2CC(N(C)C)C2)nnc1N1CCc2ncc(N3CCCn4nccc43)cc2C1 [Example 518] please
Result: 102

Ask: Can you handle Cc1cc(C#N)cnc1N1CCc2ncc(N3CCCn4nc(C5CC5)cc43)cc2C1 [Example 415] next?
Result: 72

Ask: Also check Cc1cc(C(=O)NCc2ccc(-n3cccn3)cc2)cnc1N1CCc2ncccc2C1 [compound 67]
Result: 55

Ask: What would you report for Cc1c(C#N)nnc(N2CCc3ncc(Nc4nc(Cl)ncc4F)cc3C2)c1C [compound 81] ?
Result: 78

====

Molecular target: human mAChR M4 (Homo sapiens, UniProt P08173)
Construct: expressed in transfected cells
Sequence (P08173 1-479): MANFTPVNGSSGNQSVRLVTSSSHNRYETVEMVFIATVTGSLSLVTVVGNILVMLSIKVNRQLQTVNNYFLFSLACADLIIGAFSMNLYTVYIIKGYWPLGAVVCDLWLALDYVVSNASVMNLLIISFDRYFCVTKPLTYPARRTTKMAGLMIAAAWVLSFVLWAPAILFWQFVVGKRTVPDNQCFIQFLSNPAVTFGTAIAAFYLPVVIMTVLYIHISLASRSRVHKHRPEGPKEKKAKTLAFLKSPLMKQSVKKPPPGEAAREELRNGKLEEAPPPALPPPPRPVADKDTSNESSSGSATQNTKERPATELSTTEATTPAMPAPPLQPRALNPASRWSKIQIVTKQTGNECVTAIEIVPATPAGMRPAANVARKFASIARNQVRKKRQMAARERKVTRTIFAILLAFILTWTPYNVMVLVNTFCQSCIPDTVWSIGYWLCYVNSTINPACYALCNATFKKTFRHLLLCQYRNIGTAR
Test: mAChR M4 cell-based functional assay (calcium mobilization, CHO-K1 hM4-Gqi5 cells)
Settings: CHO-K1, % ACh maximum at 30 μM; human M4
reported_property: Emax at 30 µM (%)
Answer format: numeric, % implied, no suffix.

Ask: Suppose we examine the molecule Cc1ncc(-c2cnc3c(c2)CN(c2nnc(C#N)c(C)c2C)CC3)s1 ; what Emax at 30 µM value has been reported?
Result: 85

Ask: // next record Cc1cnc2c(c1)CN(c1nnc(C(=O)NCc3cncs3)c(C)c1C)CC2
Result: 108

Ask: Another: COC1CN(C(=O)c2cc(C)c(N3CCc4ncc(CC(F)(F)F)cc4C3)nn2)C1
Result: 99

Ask: Then this molecule: COCc1nc(Cl)c(C)c(N2CCc3ncc(-c4cncs4)cc3C2)n1
Result: 96

Ask: Can you check Cc1cc(C#N)cnc1N1CCc2ncc(Oc3cc(F)ccc3F)cc2C1 next?
Result: 88

Ask: Next molecule up: Cc1c(C#N)nnc(N2CCc3ncc(C(C)(O)C(F)(F)F)cc3C2)c1C (centres unmarked)
Result: 61

Ask: What do we get for Cc1cc(C#N)cnc1N1CCc2ncc(OCCOc3ccc(F)cc3)cc2C1 ?
Result: 59

Ask: // query: Cc1c(C#N)nnc(N2CCc3ncc(Nc4ncccc4F)cc3C2)c1C
Result: 72

Ask: Moving on to the next molecule: COc1ccc(Oc2cnc3c(c2)CN(c2nc(C)nc(Cl)c2C)CC3)cn1
Result: 67

Ask: Now consider Cc1nc(Cl)c(C)c(N2CCc3ncc(-c4sc(C)nc4C)cc3C2)n1 .
Result: 92

Ask: Here is the next molecule: Cc1cc(C#N)nnc1N1CCc2ncc(C(F)(F)F)cc2C1
Result: 93

Ask: Field entry: Cc1ccc(OCCOc2cnc3c(c2)CN(c2ncc(C#N)cc2C)CC3)cc1
Result: 47

Ask: Now the molecule Cc1ccc(-c2cnc3c(c2)CN(c2nnc(C#N)cc2C)CC3)cn1
Result: 85

Ask: Note, next up: [2H]C1([2H])Cc2ncc(Nc3ccncc3C)cc2C([2H])([2H])N1c1nnc(C#N)cc1C
Result: 70

Ask: One more molecule: Cc1cc(C#N)cnc1N1CCc2ncc(N3CCC(C)n4nccc43)cc2C1 (centres unmarked)
Result: 103

Ask: For Cc1cc(C#N)nnc1N1CCc2ncc(-c3ccnn3C)cc2C1 then?
Result: 86

Ask: Then this molecule: Cc1nc(C)c(C)c(N2CCc3ncc(-c4ccc(F)nc4)cc3C2)n1
Result: 59

Ask: And then Cc1c(C#N)nnc(N2CCc3ncc(-c4cc(F)cnc4Cl)cc3C2)c1C , what is it?
Result: 70

Ask: Likewise for Cc1cc(C(=O)N2CC(c3ccncc3)C2)nnc1N1CCc2ncc(N3CCCn4nccc43)cc2C1 ?
Result: 76

Ask: Subsequent entry: Cc1cc(C#N)nnc1N1CCc2ncc(Oc3ccc(F)cc3F)cc2C1
Result: 81

Ask: Further, for Cc1nc(C)c(C)c(N2CCc3ncc(-c4ccc(-n5ccnc5)nc4)cc3C2)n1 ?
Result: 61

Ask: And the next one, Cc1cc(C#N)cnc1N1CCc2ncc(N3CCCn4nccc43)cc2C1 ?
Result: 94

Ask: Quick one: Cc1nc(Cl)c(C)c(N2CCc3ncc(Oc4ccccc4F)cc3C2)n1
Result: 90

Ask: Param item: Cc1cc(C#N)nnc1N1CCc2ncc(N3CCN(C)C(=O)C3)cc2C1
Result: 89

Ask: Cool, now Cc1c(C#N)nnc(N2CCc3ncc(-c4cnc(Cl)c(F)c4)cc3C2)c1C
Result: 61

Ask: Entry to check: Cc1cc(C#N)cnc1N1CCc2ncc(Nc3cccc(Cl)c3F)cc2C1
Result: 100

Ask: Same lookup for Cc1cc(C#N)cnc1N1CCc2ncc(Nc3cc(F)ccc3F)cc2C1 , please.
Result: 95

Ask: How about this molecule: Cc1cc(C(=O)N2CC(CO)C2)nnc1N1CCc2ncc(N3CCCn4nccc43)cc2C1
Result: 78

Ask: And the next one, Cc1cc(C#N)cnc1N1CCc2ncc(-c3c(C)noc3C)cc2C1 ?
Result: 90

Ask: Please give the result for Cc1cc(C#N)nnc1N1CCc2ncc(N3CCCn4nc(C(C)(C)C)cc43)cc2C1 too.
Result: 80

Ask: Also need Cc1cc(C(=O)NCc2ccc(Cl)nc2)cnc1N1CCc2ncc(-c3cn(C)nc3C)cc2C1 , thanks.
Result: 58

Ask: Same thing, different molecule: Cc1cc(C(=O)N2CCc3ccncc3C2)nnc1N1CCc2ncc(C(F)(F)F)cc2C1
Result: 88

Ask: Item: Cc1cc(C(=O)N2CC(C)(F)C2)nnc1N1CCc2ncc(N3CCO[C@H](C)C3)cc2C1
Result: 89

Ask: Now give it for Cc1cc(C(=O)NCc2ccncc2)cnc1N1CCc2ncc(-c3cn(C)nc3C)cc2C1 too.
Result: 78

Ask: What do you have for Cc1nc(Cl)c(C)c(N2CCc3ncc(Oc4ccc5c(cnn5C)c4)cc3C2)n1 ?
Result: 76
